Origin of values: the supplement of paper PMC11061612

- Test system: HSC-3 (Oral Cavity Carcinoma)
- Procedure Details: combination Emax (second highest fraction inhibited in the dose matrix, 72 h); higher = more inhibition; extreme values may be limits of the assay
Experimental Endpoint: combination Emax
Answers are plain numbers.

Example compounds with recorded combination Emax:
Compound: COc1cc2c(cc1OCCCCCOc1cc3c(cc1OC)C(=O)N1C=C(C)C[C@H]1C=N3)N=C[C@@H]1CC(C)=CN1C2=O [SG3199] + O=C(c1cc(Cc2n[nH]c(=O)c3ccccc23)ccc1F)N1CCN(C(=O)C2CC2)CC1 [Olaparib] (first compound max 0.001 µM, 7x7, partner max 10 µM)
Numeric Value: 0.157

Compound: Cc1c2c(nn1C)CSCc1cc(n(C)n1)CSc1cc(c3ccccc3c1)OCCCc1c(C(=O)O)n(C)c3c-2c(Cl)ccc13 [AZD5991] + C1CN(CCC1(C(=O)N[C@@H](CCO)C2=CC=C(C=C2)Cl)N)C3=NC=NC4=C3C=CN4 [Capivasertib] (first compound max 1 µM, 7x7, partner max 3 µM)
Numeric Value: 0.728

Compound: Cc1cc2ncnn2cc1Nc1ncc2c(n1)n(C1CCOCC1)c(=O)n2C [AZD7648] + C=CCn1c(=O)c2cnc(Nc3ccc(N4CCN(C)CC4)cc3)nc2n1-c1cccc(C(C)(C)O)n1 [AZD1775] (first compound max 10 µM, partner max 1 µM)
Numeric Value: 0.311

Compound: CCN(CCO)CCCOc1ccc2c(Nc3cc(CC(=O)Nc4cccc(F)c4)[nH]n3)ncnc2c1 [AZD2811] + O=C(c1cc(Cc2n[nH]c(=O)c3ccccc23)ccc1F)N1CCN(C(=O)C2CC2)CC1 [Olaparib] (first compound max 1 µM, 7x7, partner max 10 µM)
Numeric Value: 0.351

Compound: COc1cc2ncnc(Nc3ccc(F)c(Cl)c3)c2cc1OCCCN1CCOCC1 [Gefitinib] + CC(C)n1c(=O)n(C)c2cnc3cc(F)c(-c4ccc(OCCCN5CCCCC5)nc4)cc3c21 [AZD1390] (first compound max 10 µM, 7x7, partner max 0.3 µM)
Numeric Value: 0.623

Compound: CC1(C)CCC(CN2CCN(c3ccc(C(=O)NS(=O)(=O)c4ccc(NCC5CCOCC5)c([N+](=O)[O-])c4)c(Oc4cnc5[nH]ccc5c4)c3)CC2)=C(c2ccc(Cl)cc2)C1 [Venetoclax] + C1CN(CCC1(C(=O)N[C@@H](CCO)C2=CC=C(C=C2)Cl)N)C3=NC=NC4=C3C=CN4 [Capivasertib] (first compound max 1 µM, 7x7, partner max 3 µM)
Numeric Value: 0.391

For each of the compounds below, state combination Emax.
1. Cc1nc(Nc2ncc(C(=O)Nc3c(C)cccc3Cl)s2)cc(N2CCN(CCO)CC2)n1 [Dasatinib] + CC(=O)Nc1cccc(-n2c(=O)n(C3CC3)c(=O)c3c(Nc4ccc(I)cc4F)n(C)c(=O)c(C)c32)c1 [Trametinib] (first compound max 2 µM, 7x7, partner max 1 µM)
2. COc1cccc(OCCCN)c1-c1cc(Nc2cnc(C#N)cn2)n[nH]1 [Prexasertib] + O=C(c1cc(Cc2n[nH]c(=O)c3ccccc23)ccc1F)N1CCN(C(=O)C2CC2)CC1 [Olaparib] (first compound max 1 µM, 7x7, partner max 10 µM)
3. Cc1c2c(nn1C)CSCc1cc(n(C)n1)CSc1cc(c3ccccc3c1)OCCCc1c(C(=O)O)n(C)c3c-2c(Cl)ccc13 [AZD5991] + CN(C)CCCOc1ccc(-c2ccc3ncc4c(c3c2)n(C2CCOCC2)c(=O)n4C)cn1 [AZD0156] (first compound max 1 µM, 7x7, partner max 1 µM)

Reply |
[0.867, 0.719, 0.873]

For each of the compounds below, state combination Emax.
1. NC1(C(=O)N[C@@H](CCO)c2ccc(Cl)cc2)CCN(c2ncnc3[nH]ccc23)CC1 [Capivasertib] + C[C@@H]1COCCN1C2=NC(=NC(=C2)C3(CC3)[S@](=N)(=O)C)C4=C5C=CNC5=NC=C4 [AZD6738] (first compound max 10 µM, 7x7, partner max 10 µM)
2. COc1nnc2ccc(N3CCC(c4ccc(OCCN5CCN(C)C(=O)[C@H]5C)cc4)CC3)nn12 [AZD5153] + Cc1c2c(nn1C)CSCc1cc(n(C)n1)CSc1cc(c3ccccc3c1)OCCCc1c(C(=O)O)n(C)c3c-2c(Cl)ccc13 [AZD5991] (first compound max 1 µM, 7x7, partner max 1 µM)
3. C[C@@H](c1ccc2nccn2c1)n1nnc2ncc(-c3cnn(C)c3)nc21 [Savolitinib] + CN(CC[C@H](CSC1=CC=CC=C1)NC2=C(C=C(C=C2)S(=O)(=O)NC(=O)C3=CC=C(C=C3)N4CCC(CC4)[C@H](C5=CC=CC=C5C6=CC=C(C=C6)Cl)O)S(=O)(=O)C(F)(F)F)CCO [AZD4320] (first compound max 1 µM, 7x7, partner max 1 µM)
4. CN(CCO)CC[C@H](CSc1ccccc1)Nc1ccc(S(=O)(=O)NC(=O)c2ccc(N3CCC([C@@H](O)c4ccccc4-c4ccc(Cl)cc4)CC3)cc2)cc1S(=O)(=O)C(F)(F)F [AZD4320] + CN(C)CCCOc1ccc(-c2ccc3ncc4c(c3c2)n(C2CCOCC2)c(=O)n4C)cn1 [AZD0156] (first compound max 1 µM, 7x7, partner max 1 µM)

Reply |
1. 0.764
2. 0.778
3. 0.185
4. 0.145

---

- System: RL95-2 (Endometrial Carcinoma)
- Procedure Details: combination Emax (second highest fraction inhibited in the dose matrix, 72 h); higher = more inhibition; extreme values may be limits of the assay
Experimental Endpoint: combination Emax
Numbers only.

Example compounds with recorded combination Emax:
Compound: CCc1c2c(nc3ccc(O)cc13)-c1cc3c(c(=O)n1C2)COC(=O)[C@]3(O)CC [SN-38] + CN(C)CCCOc1ccc(-c2ccc3ncc4c(c3c2)n(C2CCOCC2)c(=O)n4C)cn1 [AZD0156] (first compound max 0.3 µM, 7x7, partner max 1 µM)
Test System: RL95-2 (Endometrial Carcinoma)
combination Emax: 0.424
//
Compound: CC1(C)CCC(CN2CCN(c3ccc(C(=O)NS(=O)(=O)c4ccc(NCC5CCOCC5)c([N+](=O)[O-])c4)c(Oc4cnc5[nH]ccc5c4)c3)CC2)=C(c2ccc(Cl)cc2)C1 [Venetoclax] + COc1cc(Nc2ncc3c(n2)-c2ccc(Cl)cc2C(c2c(F)cccc2OC)=NC3)ccc1C(=O)O [Alisertib] (first compound max 1 µM, 7x7, partner max 10 µM)
Test System: RL95-2 (Endometrial Carcinoma)
combination Emax: 0.588
//
Compound: NC1(C(=O)N[C@@H](CCO)c2ccc(Cl)cc2)CCN(c2ncnc3[nH]ccc23)CC1 [Capivasertib] + COc1nnc2ccc(N3CCC(c4ccc(OCCN5CCN(C)C(=O)[C@H]5C)cc4)CC3)nn12 [AZD5153] (first compound max 10 µM, 7x7, partner max 1 µM)
Test System: RL95-2 (Endometrial Carcinoma)
combination Emax: 0.9

Now turn to the next compound.
combination Emax of Cc1cc2ncnn2cc1Nc1ncc2c(n1)n(C1CCOCC1)c(=O)n2C [AZD7648] + CCN(CCO)CCCOc1ccc2c(Nc3cc(CC(=O)Nc4cccc(F)c4)[nH]n3)ncnc2c1 [AZD2811] (first compound max 10 µM, 7x7, partner max 1 µM) , assay on RL95-2 (Endometrial Carcinoma), is 0.595

---

- Tested on: Becker (Low Grade Glioma)
- Procedure Details: Bliss excess, mean over the matrix (fraction); higher = more synergy
Experimental Endpoint: Bliss excess
Give bare numbers.

Molecule: CC1(C)CCC(CN2CCN(c3ccc(C(=O)NS(=O)(=O)c4ccc(NCC5CCOCC5)c([N+](=O)[O-])c4)c(Oc4cnc5[nH]ccc5c4)c3)CC2)=C(c2ccc(Cl)cc2)C1 [Venetoclax] + C1CN(CCC1(C(=O)N[C@@H](CCO)C2=CC=C(C=C2)Cl)N)C3=NC=NC4=C3C=CN4 [Capivasertib] (first compound max 1 µM, 7x7, partner max 3 µM)
Numeric Value: 0.0046

Now turn to the next molecule.
Record CC1(C)CCC(CN2CCN(c3ccc(C(=O)NS(=O)(=O)c4ccc(NCC5CCOCC5)c([N+](=O)[O-])c4)c(Oc4cnc5[nH]ccc5c4)c3)CC2)=C(c2ccc(Cl)cc2)C1 [Venetoclax] + Cc1cc2ncnn2cc1Nc1ncc2c(n1)n(C1CCOCC1)c(=O)n2C [AZD7648] (first compound max 1 µM, 7x7, partner max 10 µM) . Reported Bliss excess: 0.0128

---

Record form. Attribute: Bliss excess. Fill in for each entry.
- System: FLO-1 (Esophageal Adenocarcinoma)
- Procedure Details: Bliss excess, mean over the matrix (fraction); higher = more synergy
Answers are plain numbers.

Compound: Cc1c2c(nn1C)CSCc1cc(n(C)n1)CSc1cc(c3ccccc3c1)OCCCc1c(C(=O)O)n(C)c3c-2c(Cl)ccc13 [AZD5991] + C1CN(CCC1(C(=O)N[C@@H](CCO)C2=CC=C(C=C2)Cl)N)C3=NC=NC4=C3C=CN4 [Capivasertib] (first compound max 1 µM, 7x7, partner max 3 µM)
Numeric Value: -0.0072

For each of the compounds below, state Bliss excess.
1. CCc1c2c(nc3ccc(O)cc13)-c1cc3c(c(=O)n1C2)COC(=O)[C@]3(O)CC [SN-38] + CN(C)CCCOc1ccc(-c2ccc3ncc4c(c3c2)n(C2CCOCC2)c(=O)n4C)cn1 [AZD0156] (first compound max 0.3 µM, 7x7, partner max 1 µM)
2. CN(CCO)CC[C@H](CSc1ccccc1)Nc1ccc(S(=O)(=O)NC(=O)c2ccc(N3CCC([C@@H](O)c4ccccc4-c4ccc(Cl)cc4)CC3)cc2)cc1S(=O)(=O)C(F)(F)F [AZD4320] + CC(=O)O[C@H]1C(=O)[C@@]2(C)[C@H]([C@H](OC(=O)c3ccccc3)[C@]3(O)C[C@H](OC(=O)[C@H](O)[C@@H](NC(=O)c4ccccc4)c4ccccc4)C(C)=C1C3(C)C)[C@]1(OC(C)=O)CO[C@@H]1C[C@@H]2O [Paclitaxel] (first compound max 1 µM, 7x7, partner max 3 µM)
3. CCc1c2c(nc3ccc(O)cc13)-c1cc3c(c(=O)n1C2)COC(=O)[C@]3(O)CC [SN-38] + O=C(c1cc(Cc2n[nH]c(=O)c3ccccc23)ccc1F)N1CCN(C(=O)C2CC2)CC1 [Olaparib] (first compound max 0.3 µM, 7x7, partner max 10 µM)
4. Cc1c2c(nn1C)CSCc1cc(n(C)n1)CSc1cc(c3ccccc3c1)OCCCc1c(C(=O)O)n(C)c3c-2c(Cl)ccc13 [AZD5991] + Nc1ccn([C@@H]2O[C@H](CO)[C@@H](O)C2(F)F)c(=O)n1 [Gemcitabine] (first compound max 1 µM, 7x7, partner max 0.3 µM)
5. C[C@@H](c1ccc2nccn2c1)n1nnc2ncc(-c3cnn(C)c3)nc21 [Savolitinib] + CC1(C)CCC(CN2CCN(c3ccc(C(=O)NS(=O)(=O)c4ccc(NCC5CCOCC5)c([N+](=O)[O-])c4)c(Oc4cnc5[nH]ccc5c4)c3)CC2)=C(c2ccc(Cl)cc2)C1 [Venetoclax] (first compound max 1 µM, 7x7, partner max 1 µM)

Reply |
0.0218
0.0005
0.0371
-0.0134
-0.0752
